B1: library; numbered along this chain (parent)
chain: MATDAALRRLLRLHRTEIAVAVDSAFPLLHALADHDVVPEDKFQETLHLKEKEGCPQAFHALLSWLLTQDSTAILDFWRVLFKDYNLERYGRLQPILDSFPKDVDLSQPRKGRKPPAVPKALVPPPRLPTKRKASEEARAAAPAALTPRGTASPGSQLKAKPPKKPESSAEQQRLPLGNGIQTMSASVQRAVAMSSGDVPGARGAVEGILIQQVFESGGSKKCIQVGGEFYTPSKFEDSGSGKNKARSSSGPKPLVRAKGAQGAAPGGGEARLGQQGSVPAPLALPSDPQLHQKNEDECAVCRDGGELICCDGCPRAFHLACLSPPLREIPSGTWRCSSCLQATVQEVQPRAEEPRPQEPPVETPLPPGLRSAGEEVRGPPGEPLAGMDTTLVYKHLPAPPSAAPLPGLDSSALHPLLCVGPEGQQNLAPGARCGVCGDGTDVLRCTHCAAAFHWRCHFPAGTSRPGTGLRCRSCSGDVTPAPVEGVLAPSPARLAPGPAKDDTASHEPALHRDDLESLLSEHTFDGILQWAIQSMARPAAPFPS

Variants of: B1
EXPERIMENTAL_DETAILS: AIRE transcriptional activation functional score (insulin promoter-GFP; nonsense median 0, synonymous median 1) (normalised score); higher = higher AIRE activity (more reporter activation)
EXPERIMENTAL_PARAMETERS: with insulin promoter-GFP reporter in HEK293
READOUT_KIND: AIRE transcriptional activation functional score
Returns: the value as a bare number; no unit string appended.

AIRE transcriptional activation functional score measured on "R356N" = 1.01

AIRE transcriptional activation functional score measured on "A140K" = 0.768

AIRE transcriptional activation functional score measured on "A321W" = 1.14

AIRE transcriptional activation functional score measured on "P499L" = 1.11

AIRE transcriptional activation functional score measured on "S324A" = 1.37

AIRE transcriptional activation functional score measured on "E522F" = 0.252

AIRE transcriptional activation functional score measured on "I96V" = 1.14

AIRE transcriptional activation functional score measured on "A73L" = 0.61

AIRE transcriptional activation functional score measured on "R356Y" = 1.03

AIRE transcriptional activation functional score measured on "E45S" = -0.772

AIRE transcriptional activation functional score measured on "A450T" = 0.632

AIRE transcriptional activation functional score measured on "R89G" = 0.255

AIRE transcriptional activation functional score measured on "K120R" = 1.21

AIRE transcriptional activation functional score measured on "P367D" = 0.924

AIRE transcriptional activation functional score measured on "G277Q" = 0.825

AIRE transcriptional activation functional score measured on "E307Q" = 1

AIRE transcriptional activation functional score measured on "R113A" = 0.951

AIRE transcriptional activation functional score measured on "P56H" = 0.985

AIRE transcriptional activation functional score measured on "T390W" = 1.51

AIRE transcriptional activation functional score measured on "Q108C" = 0.53

AIRE transcriptional activation functional score measured on "K259D" = -0.753

AIRE transcriptional activation functional score measured on "H35W" = 0.553

AIRE transcriptional activation functional score measured on "A265Q" = 0.479

AIRE transcriptional activation functional score measured on "T524I" = 0.0345

AIRE transcriptional activation functional score measured on "G150R" = 0.148

AIRE transcriptional activation functional score measured on "P422T" = 0.528

AIRE transcriptional activation functional score measured on "A493Q" = 0.91

AIRE transcriptional activation functional score measured on "T390R" = 1.02

AIRE transcriptional activation functional score measured on "I533Y" = 0.199

AIRE transcriptional activation functional score measured on "K221D" = 0.706

AIRE transcriptional activation functional score measured on "L470R" = 0.997

AIRE transcriptional activation functional score measured on "P492A" = 0.732

AIRE transcriptional activation functional score measured on "A352Y" = 0.899

AIRE transcriptional activation functional score measured on "I18T" = -0.194

AIRE transcriptional activation functional score measured on "P367V" = 0.854

AIRE transcriptional activation functional score measured on "F215V" = 0.289

AIRE transcriptional activation functional score measured on "R494T" = 0.134

AIRE transcriptional activation functional score measured on "S491I" = 1.1

AIRE transcriptional activation functional score measured on "E229L" = 0.0432

AIRE transcriptional activation functional score measured on "S411D" = 0.711

AIRE transcriptional activation functional score measured on "A386E" = 1.21

AIRE transcriptional activation functional score measured on "S168V" = 0.761

AIRE transcriptional activation functional score measured on "L13I" = 0.695

AIRE transcriptional activation functional score measured on "M194K" = 0.544

AIRE transcriptional activation functional score measured on "S156V" = 1.13

AIRE transcriptional activation functional score measured on "C223D" = 0.503
